The origin of these recorded values is the supplement of paper PMC10307832.

System: LU99A
Assay: relative viability (nuclei count vs DMSO), 5 days (fraction); higher = more cells survive
Conditions: first compound 0.04 µM
# strict inequality: relative viability < 0.3 yields Criterion met, everything else yields Criterion not met

- Compound: "C[C@@H]1CN(CC(=O)Nc2ccc3c(c2)Cc2cccc(-c4cc(=O)cc(N5CCOCC5)o4)c2S3)C[C@H](C)O1 + COc1cc2c(Oc3ccc(NC(=O)C4(C(=O)Nc5ccc(F)cc5)CC4)cc3F)ccnc2cc1OCCCN1CCOCC1 [Foretinib] (partner 0.25 µM)"
  Discrete label: "Criterion not met"
- Compound: "Clc1ccc(Nc2nnc(Cc3ccncc3)c3ccccc23)cc1 [Vatalanib] + Cc1cc(Nc2cc(N3CCN(C)CC3)nc(Sc3ccc(NC(=O)C4CC4)cc3)n2)n[nH]1 [Tozasertib] (partner 0.1 µM)"
  Discrete label: "Criterion met"
- Compound: "Clc1ccc(Nc2nnc(Cc3ccncc3)c3ccccc23)cc1 [Vatalanib] + Cc1nc(Nc2ncc(C(=O)Nc3c(C)cccc3Cl)s2)cc(N2CCN(CCO)CC2)n1 [Dasatinib] (partner 0.075 µM)"
  Discrete label: "Criterion not met"
- Compound: "Clc1ccc(Nc2nnc(Cc3ccncc3)c3ccccc23)cc1 [Vatalanib] + O=C(c1cc(Cc2n[nH]c(=O)c3ccccc23)ccc1F)N1CCN(C(=O)C2CC2)CC1 [Olaparib] (partner 8 µM)"
  Discrete label: "Criterion met"
- Compound: "C[C@@H]1CN(CC(=O)Nc2ccc3c(c2)Cc2cccc(-c4cc(=O)cc(N5CCOCC5)o4)c2S3)C[C@H](C)O1 + N=C(N)NC(=N)NCCc1ccccc1 [Phenformin] (partner 250 µM)"
  Discrete label: "Criterion not met"
- Compound: "COc1cc(N2CCC(C(N)=O)CC2)ccc1Nc1nc(N)c(Cl)c(Nc2ccccc2S(=O)(=O)C(C)C)n1 [HG-5-88-01] + Cc1nc(NC(=O)N2CCC[C@H]2C(N)=O)sc1-c1ccnc(C(C)(C)C(F)(F)F)c1 [Alpelisib] (partner 2 µM)"
  Discrete label: "Criterion not met"
- Compound: "COc1cc(N2CCC(C(N)=O)CC2)ccc1Nc1nc(N)c(Cl)c(Nc2ccccc2S(=O)(=O)C(C)C)n1 [HG-5-88-01] + CC(=O)c1c(C)c2cnc(Nc3ccc(N4CCNCC4)cn3)nc2n(C2CCCC2)c1=O [Palbociclib] (partner 0.5 µM)"
  Discrete label: "Criterion not met"
- Compound: "COc1cc(N2CCC(C(N)=O)CC2)ccc1Nc1nc(N)c(Cl)c(Nc2ccccc2S(=O)(=O)C(C)C)n1 [HG-5-88-01] + O=C(c1cc(Cc2n[nH]c(=O)c3ccccc23)ccc1F)N1CCN(C(=O)C2CC2)CC1 [Olaparib] (partner 8 µM)"
  Discrete label: "Criterion met"
- Compound: "Clc1ccc(Nc2nnc(Cc3ccncc3)c3ccccc23)cc1 [Vatalanib] + CC(=O)Nc1cccc(-n2c(=O)n(C3CC3)c(=O)c3c(Nc4ccc(I)cc4F)n(C)c(=O)c(C)c32)c1 [Trametinib] (partner 0.02 µM)"
  Discrete label: "Criterion not met"

----------
Test system: NCI-H460
Test: relative viability (nuclei count vs DMSO), 5 days (fraction); higher = more cells survive
Details: first compound 0.8 µM
Each item that follows carries a reported relative viability.

- Compound: "CCCCCCCCCCCC1=C(O)C(=O)C=C(O)C1=O [Embelin] + CS(=O)(=O)N1CCN(Cc2cc3nc(-c4cccc5[nH]ncc45)nc(N4CCOCC4)c3s2)CC1 [Pictilisib] (partner 1 µM)"
  relative viability: 0.409
- Compound: "CCCCCCCCCCCC1=C(O)C(=O)C=C(O)C1=O [Embelin] + CCNC(=O)c1noc(-c2cc(C(C)C)c(O)cc2O)c1-c1ccc(CN2CCOCC2)cc1 [Luminespib] (partner 0.01 µM)"
  relative viability: 0.0396
- Compound: "CCCCCCCCCCCC1=C(O)C(=O)C=C(O)C1=O [Embelin] + C[C@@H](Oc1cc(-c2cnn(C3CCNCC3)c2)cnc1N)c1c(Cl)ccc(F)c1Cl [Crizotinib] (partner 1 µM)"
  relative viability: 1.04
- Compound: "CCCCCCCCCCCC1=C(O)C(=O)C=C(O)C1=O [Embelin] + O=C(CCCCCCC(=O)Nc1ccccc1)NO [Vorinostat] (partner 1 µM)"
  relative viability: 0.948
